Target Or Test System: Human α2δ-1 subunit of Cav2.2 calcium channel (Homo sapiens)
Sequence (P54289 25-1103): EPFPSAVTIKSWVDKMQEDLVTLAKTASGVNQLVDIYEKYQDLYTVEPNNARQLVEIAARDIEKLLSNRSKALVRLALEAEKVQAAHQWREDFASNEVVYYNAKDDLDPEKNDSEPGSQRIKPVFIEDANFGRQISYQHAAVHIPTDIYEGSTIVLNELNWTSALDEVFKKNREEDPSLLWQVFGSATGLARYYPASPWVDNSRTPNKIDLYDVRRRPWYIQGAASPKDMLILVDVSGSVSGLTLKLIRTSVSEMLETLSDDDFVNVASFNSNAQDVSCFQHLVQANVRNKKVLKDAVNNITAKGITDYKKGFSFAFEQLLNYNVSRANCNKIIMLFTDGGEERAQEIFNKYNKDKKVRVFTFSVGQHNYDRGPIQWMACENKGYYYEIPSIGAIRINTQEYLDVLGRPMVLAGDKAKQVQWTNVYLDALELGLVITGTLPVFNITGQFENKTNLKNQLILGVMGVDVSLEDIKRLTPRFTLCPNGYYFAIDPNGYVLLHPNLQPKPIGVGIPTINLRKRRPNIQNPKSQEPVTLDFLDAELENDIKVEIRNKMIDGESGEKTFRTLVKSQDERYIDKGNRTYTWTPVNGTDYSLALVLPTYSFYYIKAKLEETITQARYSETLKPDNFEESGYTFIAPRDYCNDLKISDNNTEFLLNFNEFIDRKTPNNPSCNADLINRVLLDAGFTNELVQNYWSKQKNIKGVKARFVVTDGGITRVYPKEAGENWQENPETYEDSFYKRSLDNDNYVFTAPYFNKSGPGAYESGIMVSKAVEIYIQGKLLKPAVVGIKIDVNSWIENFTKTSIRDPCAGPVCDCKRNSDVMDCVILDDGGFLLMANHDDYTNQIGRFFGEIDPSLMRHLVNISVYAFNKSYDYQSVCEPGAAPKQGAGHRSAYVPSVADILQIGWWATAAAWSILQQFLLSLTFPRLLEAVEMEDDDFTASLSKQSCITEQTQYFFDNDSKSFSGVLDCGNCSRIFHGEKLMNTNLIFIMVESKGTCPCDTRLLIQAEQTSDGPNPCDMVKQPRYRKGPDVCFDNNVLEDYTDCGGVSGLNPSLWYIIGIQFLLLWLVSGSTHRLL
Test Details: biochemical
Type: binding
molecules and their reported Ki
Recorded Endpoint: Ki

{"Molecule": "CCC[C@H](c1nc2ccc(Br)cc2c(=O)n1CC)[C@@H]1CCN[C@@H](C)C1 [Example 193]", "Target Or Test System": "Human α2δ-1 subunit of Cav2.2 calcium channel (Homo sapiens)", "Recorded Endpoint": "Ki", "Result": "> 5000 nM"}
{"Molecule": "CCCC(c1nc2ncc(Br)cc2c(=O)n1CC)N1CCNCC1 (centres unmarked) [Example 93]", "Target Or Test System": "Human α2δ-1 subunit of Cav2.2 calcium channel (Homo sapiens)", "Recorded Endpoint": "Ki", "Result": "< 500 nM"}
{"Molecule": "CCC[C@H](c1nc2cc(Cl)c(Cl)cc2c(=O)n1CC)N1CCN[C@@H](C)C1 [Example 49]", "Target Or Test System": "Human α2δ-1 subunit of Cav2.2 calcium channel (Homo sapiens)", "Recorded Endpoint": "Ki", "Result": "< 500 nM"}
{"Molecule": "CCCC(c1nc2ccc(N(C)C3CCN(C)CC3)cc2c(=O)n1CC)N1C[C@@H](C)N[C@@H](C)C1 (some centres unmarked) [Example 143]", "Target Or Test System": "Human α2δ-1 subunit of Cav2.2 calcium channel (Homo sapiens)", "Recorded Endpoint": "Ki", "Result": "< 500 nM"}
{"Molecule": "CCC[C@@H](c1nc2ccc(NCC[C@@]3(c4ccccn4)CCOC4(CCCC4)C3)cc2c(=O)n1CC)N1C[C@@H](C)N[C@@H](C)C1 [Example 158]", "Target Or Test System": "Human α2δ-1 subunit of Cav2.2 calcium channel (Homo sapiens)", "Recorded Endpoint": "Ki", "Result": "< 500 nM"}
{"Molecule": "CCCC(c1nc2ccc(Br)cc2c(=O)n1CCC)N1CCNCC1 (centres unmarked) [Example 82]", "Target Or Test System": "Human α2δ-1 subunit of Cav2.2 calcium channel (Homo sapiens)", "Recorded Endpoint": "Ki", "Result": "< 500 nM"}
{"Molecule": "CCC[C@H](c1nc2c(F)cc(F)cc2c(=O)n1C)N1CCN[C@@H](C)C1 [Example 225]", "Target Or Test System": "Human α2δ-1 subunit of Cav2.2 calcium channel (Homo sapiens)", "Recorded Endpoint": "Ki", "Result": "500 to 5000 nM"}
{"Molecule": "CCC[C@H](c1nc2cc(F)c(Cl)cc2c(=O)n1C)N1CCN[C@@H](C)C1 [Example 221]", "Target Or Test System": "Human α2δ-1 subunit of Cav2.2 calcium channel (Homo sapiens)", "Recorded Endpoint": "Ki", "Result": "500 to 5000 nM"}

* * *

Target Or Test System: Human μ-opioid receptor (Homo sapiens)
Test Details: biochemical
Assay type: binding
As shown below, each of these compounds has a reported Ki value.

{"Compound": "CCCC(c1nc2ccc(N3CCCC3)cc2c(=O)n1CC)N1C[C@@H](C)N[C@@H](C)C1 (some centres unmarked)", "Ki": "> 500 nM"}
{"Compound": "CCC[C@@H](c1nc2ccccc2c(=O)n1CC)N1CCN[C@@H](C)C1", "Ki": "> 500 nM"}
{"Compound": "CCC[C@H](c1nc2ccc(C(F)(F)F)cc2c(=O)n1CC)N1CCN[C@@H](C)C1", "Ki": "100 to 500 nM"}
{"Compound": "CCC[C@H](c1nc2cc(F)c(OC)cc2c(=O)n1CC)N1CCN[C@H](C)C1", "Ki": "> 500 nM"}
{"Compound": "CCC[C@@H](c1nc2cc(O[C@H](CCNC)c3ccccc3)ccc2c(=O)n1C)N1C[C@@H](C)N[C@@H](C)C1", "Ki": "> 500 nM"}
{"Compound": "CCCC(c1nc2ccccc2c(=O)n1CCOC)N1C[C@@H](C)N[C@@H](C)C1 (some centres unmarked)", "Ki": "> 500 nM"}
{"Compound": "CCCC(c1nc2ccc(OC)cc2c(=O)n1CCOC)N1C[C@@H](C)N[C@@H](C)C1 (some centres unmarked)", "Ki": "> 500 nM"}
{"Compound": "CCC[C@H](c1nc2c(F)cc(F)cc2c(=O)n1CC)N1CCN[C@@H](C)C1", "Ki": "< 100 nM"}
{"Compound": "CCC[C@@H](c1nc2ccccc2c(=O)n1C)N1C[C@@H](C)N[C@@H](C)C1", "Ki": "> 500 nM"}
{"Compound": "CCC[C@H](c1nc2ccc(N3C[C@H](C)OC4(CCN(CCc5ccccc5)CC4)C3)cc2c(=O)n1CC)N1C[C@@H](C)N[C@@H](C)C1", "Ki": "> 500 nM"}
{"Compound": "CCCC(c1nc2ccc(N3CCC(NC)CC3)cc2c(=O)n1CC)N1C[C@@H](C)N[C@@H](C)C1 (some centres unmarked)", "Ki": "> 500 nM"}
{"Compound": "CCC[C@H](c1nc2ncc(Cl)cc2c(=O)n1CC)N1CCN[C@@H](C)C1", "Ki": "100 to 500 nM"}
{"Compound": "CCCC(c1nc2cc(Br)ccc2c(=O)n1C)N1C[C@@H](C)N[C@@H](C)C1 (some centres unmarked)", "Ki": "> 500 nM"}
{"Compound": "CCC[C@H](c1nc2cc(Cl)c(Cl)cc2c(=O)n1C)N1CCN[C@@H](C)C1", "Ki": "100 to 500 nM"}
{"Compound": "CCC[C@H](c1nc2c(F)cc(F)cc2c(=O)n1CC)N1CCNCC1", "Ki": "100 to 500 nM"}
{"Compound": "CCCC(c1nc2ccc(NCCNC)cc2c(=O)n1CC)N1C[C@@H](C)N[C@@H](C)C1 (some centres unmarked)", "Ki": "> 500 nM"}
{"Compound": "CCCC(c1nc2ccc(Br)c(Cl)c2c(=O)n1CC)N1C[C@@H](C)N[C@@H](C)C1 (some centres unmarked)", "Ki": "> 500 nM"}
{"Compound": "CCC[C@H](c1nc2ccc(Br)cc2c(=O)n1CC)N1CCN[C@@H](C)C1", "Ki": "100 to 500 nM"}
{"Compound": "CCC[C@H](c1nc2c(F)cccc2c(=O)n1CC)N1CCN[C@@H](C)C1", "Ki": "> 500 nM"}
{"Compound": "CCC[C@@H](c1nc2cc(O[C@@H](CNC)c3ccccc3)ccc2c(=O)n1C)N1C[C@@H](C)N[C@@H](C)C1", "Ki": "> 500 nM"}
{"Compound": "CCC[C@H](c1nc2ccc(F)cc2c(=O)n1CCC)N1CCN[C@@H](C)C1", "Ki": "> 500 nM"}
{"Compound": "CCCC(c1nc2ccc(N3CCC(N(C)Cc4ccccc4)CC3)cc2c(=O)n1CC)N1C[C@@H](C)N[C@@H](C)C1 (some centres unmarked)", "Ki": "> 500 nM"}
{"Compound": "CCC[C@@H](c1nc2ccc(N3C[C@@H](C)OC4(CCN(CCc5ccccc5)CC4)C3)cc2c(=O)n1CC)N1C[C@@H](C)N[C@@H](C)C1", "Ki": "> 500 nM"}
{"Compound": "CCC[C@H](c1nc2ccc(F)cc2c(=O)n1C)N1CCN[C@@H](C)C1", "Ki": "100 to 500 nM"}
{"Compound": "CCCC(c1nc2ccc(C#N)cc2c(=O)n1CC)N1C[C@@H](C)N[C@@H](C)C1 (some centres unmarked)", "Ki": "> 500 nM"}
{"Compound": "CCC[C@@H](c1nc2cc(F)c(Cl)cc2c(=O)n1CC)N1CCN[C@@H](C)C1", "Ki": "> 500 nM"}
{"Compound": "CCCC(c1nc2cc(-c3ccnc(OC)c3)ccc2c(=O)n1CC)N1C[C@@H](C)N[C@@H](C)C1 (some centres unmarked)", "Ki": "> 500 nM"}
{"Compound": "CCCC(c1nc2ncc(Br)cc2c(=O)n1CC)N1CCNCC1 (centres unmarked)", "Ki": "> 500 nM"}
{"Compound": "CCC[C@H](c1nc2cc(F)c(Br)cc2c(=O)n1C)N1CCN[C@@H](C)C1", "Ki": "100 to 500 nM"}
{"Compound": "CCC[C@@H](c1nc2ccc(Br)cc2c(=O)n1CC)N1C[C@H](C)N[C@@H](C)C1", "Ki": "> 500 nM"}
{"Compound": "CCC[C@@H](c1nc2ccc(Cl)cc2c(=O)n1CC)N1CCN[C@@H](C)C1", "Ki": "> 500 nM"}
{"Compound": "CCC[C@H](c1nc2cc(Cl)c(Cl)cc2c(=O)n1CC)N1CCN[C@@H](C)C1", "Ki": "100 to 500 nM"}

* * *

Target Or Test System: Human μ-opioid receptor (Homo sapiens, UniProt P35372)
Sequence (P35372 whole entry): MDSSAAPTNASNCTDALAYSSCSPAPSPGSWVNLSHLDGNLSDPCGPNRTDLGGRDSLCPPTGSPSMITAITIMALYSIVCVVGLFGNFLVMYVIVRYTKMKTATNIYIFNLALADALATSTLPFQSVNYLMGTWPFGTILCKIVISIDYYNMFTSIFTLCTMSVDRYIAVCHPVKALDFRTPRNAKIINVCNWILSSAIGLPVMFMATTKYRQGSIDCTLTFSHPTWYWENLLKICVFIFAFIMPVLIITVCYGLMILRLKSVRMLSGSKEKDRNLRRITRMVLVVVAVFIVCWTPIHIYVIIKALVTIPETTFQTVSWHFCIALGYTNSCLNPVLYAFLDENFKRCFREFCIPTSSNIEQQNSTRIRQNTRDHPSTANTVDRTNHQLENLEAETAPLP
Test Details: biochemical
Type: binding

{"Molecule": "CCC[C@H](c1nc2cc(F)c(Br)cc2c(=O)n1CC)N1CCN[C@H](C)C1", "Ki": "> 500 nM"}
{"Molecule": "CCCC(c1nc2cc(F)c(Br)cc2c(=O)n1CC)N1CCNCC1 (centres unmarked)", "Ki": "100 to 500 nM"}
{"Molecule": "CCCC(c1nc2ncccc2c(=O)n1CC)N1CCNCC1 (centres unmarked)", "Ki": "> 500 nM"}
{"Molecule": "CCC[C@H](c1nc2ccc(Br)cc2c(=O)n1CC)N1CCN[C@H](CF)C1", "Ki": "> 500 nM"}
{"Molecule": "CCC[C@@H](c1nc2ccc(Cl)cc2c(=O)n1CC)N1CCN[C@H](C)C1", "Ki": "> 500 nM"}
{"Molecule": "CCCC(c1nc2cc(C#N)ccc2c(=O)n1C)N1C[C@@H](C)N[C@@H](C)C1 (some centres unmarked)", "Ki": "> 500 nM"}
{"Molecule": "CCC[C@@H](c1nc2ncc(Br)cc2c(=O)n1CCC)N1CCN[C@@H](C)C1", "Ki": "> 500 nM"}
{"Molecule": "CCC[C@H](c1nc2cc(O[C@H](CCNC)c3ccccc3)ccc2c(=O)n1C)N1C[C@@H](C)N[C@@H](C)C1", "Ki": "> 500 nM"}
{"Molecule": "CCCC(c1nc2ccc(CCO)cc2c(=O)n1CC)N1C[C@@H](C)N[C@@H](C)C1 (some centres unmarked)", "Ki": "> 500 nM"}
{"Molecule": "CCCC(c1nc2ccc(Br)cc2c(=O)n1C)N1C[C@@H](C)N[C@@H](C)C1 (some centres unmarked)", "Ki": "> 500 nM"}
{"Molecule": "CCCC(c1nc2ccc(CN(C)CCC(C)C)cc2c(=O)n1CC)N1C[C@@H](C)N[C@@H](C)C1 (some centres unmarked)", "Ki": "> 500 nM"}
{"Molecule": "CCCC(c1nc2c(C)cc(Br)cc2c(=O)n1CC)N1CCNCC1 (centres unmarked)", "Ki": "< 100 nM"}
{"Molecule": "CCC[C@H](c1nc2c(F)cc(Cl)cc2c(=O)n1C)N1CCN[C@@H](C)C1", "Ki": "< 100 nM"}
{"Molecule": "CCC[C@H](c1nc2ccc(C(NC)c3ccccc3)cc2c(=O)n1CC)N1C[C@@H](C)N[C@@H](C)C1 (some centres unmarked)", "Ki": "> 500 nM"}
{"Molecule": "CCCC(c1nc2ccc(Br)cc2c(=O)n1CC)N1CCNCC1 (centres unmarked)", "Ki": "> 500 nM"}
{"Molecule": "CCC[C@H](c1nc2ccc(Br)cc2c(=O)n1CC)[C@H]1CCNCC1(F)F [Example 196]", "Ki": "> 500 nM"}
{"Molecule": "CCC[C@H](c1nc2ccc(Cl)cc2c(=O)n1CC)N1CCN[C@@H](CF)C1", "Ki": "> 500 nM"}
